- testDescription: qHTS assay for small molecule disruptors of the mitochondrial membrane potential - cell viability (AID 720634); further: nearly all actives have a fitted effect of over 20% in size
- measurementSetup: HepG2 viability, ATP luminescence (CellTiter-Glo), 1 h; series mostly up to 83.2 µM
Results filed as inconclusive are left out. The source made the active and inactive calls. The call rests on the fitted dose curve. Non-standard residues stand in square brackets, D forms with d. Residues, ends and D or L forms follow the SMILES beside them. pGlu = O=C1CC[C@@H](C(=O)O)N1
Parameter call: string, one of active, inactive

Exam item: Write down the call the test reported for this compound. Item: `COc1ccc(/C=C/C(=O)OCCC(C)C)cc1`
Marked response: inactive

Exam item: Given `CC(C)C[C@H](NC(=O)[C@@H](Cc1c[nH]c2ccccc12)NC(=O)[C@H](Cc1ccc(O)cc1)NC(=O)[C@H](CO)NC(=O)[C@H](Cc1c[nH]c2ccccc12)NC(=O)[C@H](Cc1cnc[nH]1)NC(=O)[C@@H]1CCC(=O)N1)C(=O)N[C@@H](CCCN=C(N)N)C(=O)N1CCC[C@@H]1C(=O)NCC(N)=O` , state the outcome it received in this test.
Marked response: inactive

Exam item: How did this test come out for `O=P(O)(O)OC(Cn1cncn1)(Cn1cncn1)c1ccc(F)cc1F` ?
Marked response: inactive

Exam item: Entry `OCCN1CCN(CC/C=C2/c3ccccc3Sc3ccc(Cl)cc32)CC1` : call = ?
Marked response: inactive

Exam item: What did this assay record as the result for C[Se]CCC(N)C(=O)O (configuration not stated) ?
Marked response: inactive

Exam item: // outcome(item) with item = COc1cc(Br)c(C[N+]2(CCOCCC3CCC4CC3C4(C)C)CCOCC2)cc1OC (configuration not stated)
Marked response: inactive

Exam item: Please share the test call associated with CC1(S(=O)(=O)O)CC(=O)c2ccccc2C1=O (configuration not stated) .
Marked response: inactive

Exam item: Outcome logged for `CCOC(=O)Oc1c(OC)cc(C(=O)O[C@@H]2C[C@@H]3CN4CCc5c([nH]c6cc(OC)ccc56)[C@H]4C[C@@H]3[C@H](C(=O)OC)[C@H]2OC)cc1OC` in this assay:
Marked response: active

Exam item: Status in this test for `O=S(=O)(O)Oc1ccc(C(c2ccc(OS(=O)(=O)O)cc2)c2ccccn2)cc1` ?
Marked response: inactive

Exam item: # fetch the recorded call for `CCCC(CCC)C(N)=O` here
Marked response: inactive

Exam item: GET /call?item= `CC(C)[C@@H]1CC[C@@H](C)C[C@H]1OC(=O)c1ccccc1O` returns the recorded outcome of this test.
Marked response: inactive

Exam item: Any idea what this test logged for `CO/N=C(\C(=O)N[C@@H]1C(=O)N2C(C(=O)O)=CCS[C@H]12)c1csc(N)n1` ?
Marked response: inactive

Exam item: # outcome recorded in this test, key = `COC(=O)CC[C@H](N)C(=O)O`
Marked response: inactive

Exam item: Kindly provide the recorded test outcome for the following compound: CC[C@H](C)[C@H](NC(=O)[C@H](Cc1ccccc1)NC(=O)[C@H](C)NC(=O)[C@H](CC(=O)O)NC(=O)[C@H](CCCCN)NC(=O)[C@H](CO)NC(=O)[C@@H]1CCCN1C(=O)[C@@H]1CCC(=O)N1)C(=O)NCC(=O)N[C@@H](CC(C)C)C(=O)N[C@@H](CCSC)C(N)=O ([pGlu]PSKDAFIGLM-NH2)
Marked response: inactive

Exam item: // return assay outcome for OC1OC[C@@H](O)[C@H](O)[C@@H]1O (some centres not stated)
Marked response: inactive

Exam item: What did this assay record as the result for CN1c2cc(O)c(N=NC(N)=O)cc2CC1S(=O)(=O)O (configuration not stated) ?
Marked response: inactive

Exam item: Kindly provide the recorded test outcome for the following compound: `C=C1C(=C/C=C2\CCC[C@]3(C)[C@@H]([C@H](C)/C=C/[C@H](C)C(C)C)CC[C@@H]23)C[C@@H](O)C[C@@H]1O`
Marked response: inactive
